Let's look at some compounds and their measured TGI.
Tested on: leukaemia cell line
Experiment: Cytotoxicity against human leukaemia cell line assessed as cell growth inhibition measured after 48 hrs by sulforhodamine B assay
Assay type: functional
parameter: TGI (µM)

INSERT INTO assay_data (smi, parameter, bound_sign, test_value) VALUES
  ('Cc1cc(Cl)ccc1NS(=O)(=O)c1ccc(-c2cnc(C3CC3)o2)cc1', 'TGI', '=', 54.7),
  ('Cc1cc(Cl)cc(NS(=O)(=O)c2ccc(-c3cnc(C4CC4)o3)cc2)c1', 'TGI', '=', 7.04),
  ('Cc1cc(NS(=O)(=O)c2ccc(-c3cnc(C4CC4)o3)cc2)ccc1Cl', 'TGI', '=', 33.4),
  ('O=S(=O)(Nc1ccccc1Cl)c1ccc(-c2cnc(C3CC3)o2)cc1', 'TGI', '=', 49.7),
  ('O=S(=O)(Nc1cc(Cl)ccc1Cl)c1ccc(-c2cnc(C3CC3)o2)cc1', 'TGI', '>', 100),
  ('O=S(=O)(Nc1ccc(Cl)c(F)c1)c1ccc(-c2cnc(C3CC3)o2)cc1', 'TGI', '=', 63),
  ('O=S(=O)(Nc1ccc(I)c(Cl)c1)c1ccc(-c2cnc(C3CC3)o2)cc1', 'TGI', '=', 19.6),
  ('O=S(=O)(Nc1ccc(Br)c(Cl)c1)c1ccc(-c2cnc(C3CC3)o2)cc1', 'TGI', '=', 70.3),
  ('Cc1ccc(Cl)c(NS(=O)(=O)c2ccc(-c3cnc(C4CC4)o3)cc2)c1', 'TGI', '=', 52.8),
  ('Cc1cc(F)cc(NS(=O)(=O)c2ccc(-c3cnc(C4CC4)o3)cc2)c1', 'TGI', '=', 7.25);

###

Let's look at some compounds and their measured LC50 (concentration causing 50% net cell kill).
System: Panel NCI-60 (60 carcinoma cell lines)
Assay: Cytotoxicity against human Panel NCI-60 (60 carcinoma cell lines) assessed as cell growth inhibition measured after 48 hrs by sulforhodamine B assay
Type: functional
parameter: LC50 (concentration causing 50% net cell kill) (µM)

INSERT INTO measurements (smi, test_value) VALUES
  ('O=S(=O)(Nc1ccc(Br)cc1)c1ccc(-c2cnc(C3CC3)o2)cc1', 54),
  ('O=S(=O)(Nc1ccc(Cl)cc1)c1ccc(-c2cnc(C3CC3)o2)cc1', 57.4),
  ('O=S(=O)(Nc1ccc(Cl)c(C(F)(F)F)c1)c1ccc(-c2cnc(C3CC3)o2)cc1', 55.4),
  ('O=S(=O)(Nc1ccc2ccccc2c1)c1ccc(-c2cnc(C3CC3)o2)cc1', 78.6);

###

Test system: Panel NCI-60 (60 carcinoma cell lines)
Test: Cytotoxicity against human Panel NCI-60 (60 carcinoma cell lines) assessed as cell growth at 10 uM after 48 hrs by sulforhodamine B assay relative to control
Type: functional
Conditions: read-out: Activity
Field: label. Allowed values: Y (growth at 10 µM < 30%) or N (growth at 10 µM >= 30%).

INSERT INTO measurements (smi, answer_label) VALUES
  ('O=S(=O)(Nc1cc(Cl)c(F)c(Cl)c1)c1ccc(-c2cnc(C3CC3)o2)cc1', 'N'),
  ('Cc1ccc(NS(=O)(=O)c2ccc(-c3cnc(C4CC4)o3)cc2)cc1C', 'Y'),
  ('Cc1ccc(Cl)c(NS(=O)(=O)c2ccc(-c3cnc(C4CC4)o3)cc2)c1', 'Y'),
  ('COc1cc(NS(=O)(=O)c2ccc(-c3cnc(C4CC4)o3)cc2)ccc1F', 'Y'),
  ('O=S(=O)(Nc1ccc2c(c1)OCO2)c1ccc(-c2cnc(C3CC3)o2)cc1', 'N'),
  ('O=S(=O)(c1ccc(-c2cnc(C3CC3)o2)cc1)N1CCOCC1', 'N'),
  ('Cc1cc(NS(=O)(=O)c2ccc(-c3cnc(C4CC4)o3)cc2)ccc1Cl', 'Y'),
  ('Cc1ccc(NS(=O)(=O)c2ccc(-c3cnc(C4CC4)o3)cc2)cc1C(F)(F)F', 'N'),
  ('CN(c1ccc(Br)cc1)S(=O)(=O)c1ccc(-c2cnc(C3CC3)o2)cc1', 'N'),
  ('Cc1cc(NS(=O)(=O)c2ccc(-c3cnc(C4CC4)o3)cc2)ccc1I', 'N'),
  ('O=S(=O)(Nc1ccc(N2CCOCC2)c(F)c1)c1ccc(-c2cnc(C3CC3)o2)cc1', 'N'),
  ('O=S(=O)(Nc1ccc2ccccc2c1)c1ccc(-c2cnc(C3CC3)o2)cc1', 'Y'),
  ('Cc1cc(Cl)cc(NS(=O)(=O)c2ccc(-c3cnc(C4CC4)o3)cc2)c1', 'N'),
  ('O=S(=O)(Nc1cc(Cl)cc(Cl)c1)c1ccc(-c2cnc(C3CC3)o2)cc1', 'N'),
  ('O=S(=O)(Nc1cc(Cl)ccc1Cl)c1ccc(-c2cnc(C3CC3)o2)cc1', 'N'),
  ('O=S(=O)(Nc1cccc(Cl)c1)c1ccc(-c2cnc(C3CC3)o2)cc1', 'Y'),
  ('Cc1cc(Cl)ccc1NS(=O)(=O)c1ccc(-c2cnc(C3CC3)o2)cc1', 'Y'),
  ('O=S(=O)(Nc1ccc(I)cc1Cl)c1ccc(-c2cnc(C3CC3)o2)cc1', 'N'),
  ('CN(c1ccc(F)cc1)S(=O)(=O)c1ccc(-c2cnc(C3CC3)o2)cc1', 'N'),
  ('O=S(=O)(Nc1ccc(F)cc1)c1ccc(-c2cnc(C3CC3)o2)cc1', 'Y'),
  ('O=S(=O)(Nc1ccc(Cl)cc1)c1ccc(-c2cnc(C3CC3)o2)cc1', 'Y');

###

System: Panel NCI-60 (60 carcinoma cell lines)
Assay: Cytotoxicity against human Panel NCI-60 (60 carcinoma cell lines) assessed as cell growth at 10 uM after 48 hrs by sulforhodamine B assay relative to control
Type: functional
Conditions: read-out: Activity
Assign class by growth at 10 µM: not lower than 40% means 1; lower than 40% means 0.

INSERT INTO results (smi, answer_label) VALUES
  ('O=S(=O)(Nc1cccc2ccccc12)c1ccc(-c2cnc(C3CC3)o2)cc1', 0),
  ('O=S(=O)(Nc1ccc(I)cc1)c1ccc(-c2cnc(C3CC3)o2)cc1', 1),
  ('O=S(=O)(Nc1ccc(Br)cc1)c1ccc(-c2cnc(C3CC3)o2)cc1', 0),
  ('O=C1COCCN1c1ccc(NS(=O)(=O)c2ccc(-c3cnc(C4CC4)o3)cc2)cc1', 1),
  ('O=S(=O)(Nc1ccc(F)c(Cl)c1)c1ccc(-c2cnc(C3CC3)o2)cc1', 0),
  ('O=S(=O)(Nc1cc(F)cc(F)c1)c1ccc(-c2cnc(C3CC3)o2)cc1', 0),
  ('CS(=O)(=O)CCNS(=O)(=O)c1ccc(-c2cnc(C3CC3)o2)cc1', 1),
  ('O=S(=O)(NCC(F)F)c1ccc(-c2cnc(C3CC3)o2)cc1', 1),
  ('O=S(=O)(Nc1ccc(I)c(Cl)c1)c1ccc(-c2cnc(C3CC3)o2)cc1', 0),
  ('O=S(=O)(Nc1ccc(Cl)c(C(F)(F)F)c1)c1ccc(-c2cnc(C3CC3)o2)cc1', 0);

###

System: Panel NCI-60 (60 carcinoma cell lines)
Test: Cytotoxicity against human Panel NCI-60 (60 carcinoma cell lines) assessed as cell growth inhibition measured after 48 hrs by sulforhodamine B assay
Type: functional
Field: label. Allowed values: 1 (GI50 < 2 µM) or 0 (GI50 >= 2 µM).

INSERT INTO results (smi, answer_label) VALUES
  ('CN(c1ccc(Br)cc1)S(=O)(=O)c1ccc(-c2cnc(C3CC3)o2)cc1', 0),
  ('CN(c1ccc(F)cc1)S(=O)(=O)c1ccc(-c2cnc(C3CC3)o2)cc1', 1),
  ('O=S(=O)(Nc1ccc2ccccc2c1)c1ccc(-c2cnc(C3CC3)o2)cc1', 1),
  ('O=S(=O)(Nc1ccc(Br)cc1)c1ccc(-c2cnc(C3CC3)o2)cc1', 0),
  ('O=S(=O)(Nc1ccc(Cl)cc1)c1ccc(-c2cnc(C3CC3)o2)cc1', 1),
  ('O=S(=O)(Nc1ccc(Cl)c(C(F)(F)F)c1)c1ccc(-c2cnc(C3CC3)o2)cc1', 1);

###

Test system: Panel NCI-60 (60 carcinoma cell lines)
Assay: Cytotoxicity against human Panel NCI-60 (60 carcinoma cell lines) assessed as cell growth at 10 uM after 48 hrs by sulforhodamine B assay relative to control
Format: functional
Conditions: read-out: Activity
Field: label. Allowed values: yes (1) (growth at 10 µM < 60%) or no (0) (growth at 10 µM >= 60%).

INSERT INTO assay_data (smi, target_system, answer_label) VALUES
  ('CC(=O)c1ccc(NS(=O)(=O)c2ccc(-c3cnc(C4CC4)o3)cc2)cc1', 'Panel NCI-60 (60 carcinoma cell lines)', 'no (0)'),
  ('O=S(=O)(Nc1cc(F)cc(Cl)c1)c1ccc(-c2cnc(C3CC3)o2)cc1', 'Panel NCI-60 (60 carcinoma cell lines)', 'yes (1)'),
  ('O=S(=O)(Nc1ccc(C2CC2)cc1)c1ccc(-c2cnc(C3CC3)o2)cc1', 'Panel NCI-60 (60 carcinoma cell lines)', 'no (0)'),
  ('O=S(=O)(Nc1ccc(Br)c(Cl)c1)c1ccc(-c2cnc(C3CC3)o2)cc1', 'Panel NCI-60 (60 carcinoma cell lines)', 'yes (1)'),
  ('COc1ccc(NS(=O)(=O)c2ccc(-c3cnc(C4CC4)o3)cc2)cc1', 'Panel NCI-60 (60 carcinoma cell lines)', 'yes (1)');
